Each record here notes measured Emax.
Tested on: IL-8
Test: Glucocorticoid transrepression assay, IL-8 inhibition (TR)
Format: cell-based
Conditions: Homo sapiens; Table 1; NCl-H292 cells, TNFα 10 ng/ml; read-out: IL-8 inhibition (TR) Emax % inhibition

Examples with their reported Emax follow.
Q: So what does the record say about Emax for CC12Cc3cnn(-c4ccc(F)cc4)c3C=C1CCC1C2[C@@H](O)CC2(C)C1CC[C@]2(O)C(=O)CC#N (stereo partly drawn) ?
Ans: > 80%

Q: So what does the record say about Emax for CC12Cc3cnn(-c4ccc(F)cc4)c3C=C1CCC1C2[C@@H](O)CC2(C)C1CC[C@]2(O)C(=O)COc1nc2ccccc2o1 (stereo partly drawn) ?
Ans: > 80%

Q: So what does the record say about Emax for COc1ccc2sc(SCC(=O)[C@@]3(O)CCC4C5CCC6=Cc7c(cnn7-c7ccccn7)CC6(C)C5[C@@H](O)CC43C)nc2c1 (stereo partly drawn) ?
Ans: < 60%

Q: So what does the record say about Emax for CC12Cc3cnn(C4CCOCC4)c3C=C1CCC1C2[C@@H](O)CC2(C)C1CC[C@]2(O)C(=O)CSc1ccccn1 (stereo partly drawn) ?
Ans: > 80%

Q: So what does the record say about Emax for CC12Cc3cnn(C4CCCCC4)c3C=C1CCC1C2[C@@H](O)CC2(C)C1CC[C@]2(O)C(=O)CSc1nc(-c2ccccc2)cs1 (stereo partly drawn) ?
Ans: > 80%

Now look at this entry.
Q: So what does the record say about Emax for Cn1c(OCC(=O)[C@@]2(O)CCC3C4CCC5=Cc6c(cnn6-c6ccc(F)cc6)CC5(C)C4[C@@H](O)CC32C)nc2ccccc21 (stereo partly drawn) ?
Ans: > 80%
